Exercise: state measured Tm for each of the sequences provided.
Experiment: melting temperature; fluorescence melt of hairpins on a sequencing array, two-state fit, raised by 9.35 °C to match UV melts
Settings: sodium 0.088 M
Your answer is read as °C, so omit the unit and give the number.

Task: Which Tm value is on record for GATCTGGTGGCAGATC ((((((....)))))) ?
Result: 50.1

Task: # Tm lookup, item GACGAGGCGAAAGCCGTC (((..(((....))))))
Result: 51.5

Task: Which Tm value is on record for GATCAGCCCCTGATC ((((((...)))))) ?
Result: 49.2

Task: # lookup: Tm of GATCCTCGCTAGGATC ((((((....))))))
Result: 51.2

Task: Recorded Tm of GATTTGCGAAAGCAGATC (((.(((....))).))) , please.
Result: 50

Task: Name the recorded Tm for GATCCCGCTGGGATC ((((((...)))))) .
Result: 63.2

Task: What value of Tm has been recorded for this entry: GCAGGGCGAAAGCCTAGC ((..(((....)))..))
Result: 55.2

Task: If you can, please state the reported Tm value of GATCAGCGAACTGATC ((((((....)))))) .
Result: 49.3

Task: Fill in the blank: the reported Tm of GCGTAGCGAAAGCTCGGC ((..(((....)))..)) is ____.
Result: 39.9

Task: Entry GGTGAGGGAAACCTTGCC ((..(((....)))..)) has what Tm?
Result: 41.8

Task: What value of Tm has been recorded for this entry: GCCAAGCGAAAGCCTAGC ((.(.((....)).).))
Result: 31.2

Task: # Tm lookup, item GGGAAAGGAAACTTTTCC ((.((((....)))).))
Result: 40.6

Task: Dear colleague, I am looking for the recorded Tm of the following sequence: GAGGGCGAAAGCCTTCTC ((((((....)))..)))
Result: 52

Task: Entry GTTGCCACGAAAGTGAAC (((..(((....)))))) has what Tm?
Result: 30.6

Task: I'd like to know its Tm. The sequence in question is GATCAACAAATTGATC ((((((....))))))
Result: 36.4

Task: Please look up its Tm: GGGGTCGGAAACGGCTCC ((.(.((....)).).))
Result: 49.6

Task: What value of measured Tm is listed for GCACGCACGAAAGTGTGC (((..(((....)))))) ?
Result: 52.6

Task: Item under review: GGGGTAGGAAACTGCCCC ((((.((....)).)))) . Reported Tm?
Result: 57.2

Task: Requested field: Tm. Item: GAAATACGAAAGTAATTC (((.(((....))).)))
Result: 32.9

Task: Given GTCCTCGAAAGAGCAGAC ((((((....)))..))) , state its recorded Tm.
Result: 30.1

Task: Quick one: Tm for GATCCATGGTTGGATC ((((((....)))))) ?
Result: 51.3

Task: Given the entry GATCTAACCTTAGATC ((((((....)))))) , report its measured Tm.
Result: 42.2

Task: Using the record for GTACGAGGAAACTTGTAC ((((.((....)).)))) , report its Tm.
Result: 44

Task: Query: Tm; subject: GCCAATTCGAAAGAAGGC (((..(((....))))))
Result: 38

Task: Find the recorded Tm belonging to GTCTGCACGAAAGTGGAC (((..(((....)))))) and report it.
Result: 34.7

Task: Reported Tm, sequence GAAGGCGAAAGCCGCTTC ((((((....)))..))) : ____
Result: 56.2

Task: What value of Tm has been reported for the following sequence? ACCTCGAAAGAGGT (((((....)))))
Result: 59.5

Task: Find the recorded Tm belonging to GAGATACGAAAGTAGCTC (((.(((....))).))) and report it.
Result: 57.5

Task: I have this sequence here, GACCCCGGAAACGGGATC ((.((((....)))).)) , and I need its recorded Tm.
Result: 45.8

Task: Quick one: Tm for GATCGTAGTACGATC ((((((...)))))) ?
Result: 54.7

Task: Reported Tm, sequence GATCGACTTCTCGATC ((((((....)))))) : ____
Result: 51.5

Task: Consider the sequence GCGGTCGAAAGACATCGC ((((((....)))..))) and give its measured Tm.
Result: 49.1

Task: Returns the measured Tm for the input sequence. Input: GCTATACGAAAGTACAGC (((.(((....))).)))
Result: 41.8
